test: Human HepG2 cell viability assay in 384 well format; type: toxicity, cell-based; set-up: dose 125 nL, time 70.5 hour; concentration not given beside the values; settings: HepG2 cells, read-out: Inhibition
Measurement kind: cytotoxicity at 70.5 h (%)
Quick reminder: number only, in %, skip the unit.

COc1cccc(CCNC(=O)c2ccc(=O)n(C)c2)c1 | -2.94
Cc1nc(CNC(=O)NCC(O)c2ccccc2)cs1 (configuration not stated) | -2.52
Cc1cc2nc(C(C)C)cc(NC(C)c3nncn3C)n2n1 (configuration not stated) | -17.3
CC(C)NC(=O)NC(=O)C(C)N1CCN(C2CCN(C(C)C)CC2)CC1 (configuration not stated) | -3.33
CNS(=O)(=O)Cc1ccccc1CNc1ccc(C#N)cn1 | 22.4
CC(C)NC(=O)N1CCC2(C1)CN(c1ccsc1)C(=O)CN2C (configuration not stated) | -9.03
O=C1N(c2cccc(Cl)c2)Cc2nc(=O)[nH]n21 | -3.18
Cc1ccc(N2CCCC(NCC(=O)Nc3cc(C)no3)C2)nn1 (configuration not stated) | 25.6

# input for lookup
(Q) Consider the compound Cc1c(Br)cccc1C(=O)NCc1cnn(C)c1 and give its measured cytotoxicity at 70.5 h.
(A) 2.04
